System: HIV strain K103N
Method: Cellular anti-HIV assay in MT4 LTR-EGFP cells, mutant K103N
Assay type: cell-based, HIV-1
Reported Conditions: Human immunodeficiency virus 1, read-out: K103N pEC50 (converted)
Assay Readout: EC50 (nM)
Kindly answer with a numeric value in nM, unit omitted.

                           structure_smiles  units  number
0  CC(=O)NCCNC(=O)c1cnc(Nc2ccc(C#N)cc2)nc1Nc1c(C)cc(/C=C/C#N)cc1C     nM    15.8
1  CCOC(=O)CCNC(=O)c1cnc(Nc2ccc(C#N)cc2)nc1Nc1c(C)cc(/C=C/C#N)cc1C     nM    2.51
2  COCCNC(=O)c1cnc(Nc2ccc(C#N)cc2)nc1Nc1c(C)cc(/C=C/C#N)cc1C     nM       2

Task: Input Cc1cc(/C=C/C#N)cc(C)c1Nc1nc(Nc2ccc(C#N)cc2)ncc1C(=O)NCCc1cccc(F)c1 , output reported EC50.
Output: 15.8

Task: Check the records and state EC50 for Cc1cc(/C=C/C#N)cc(C)c1Nc1nc(Nc2ccc(C#N)cc2)ncc1C(=O)NCc1ccco1
Output: 3.98

Task: For the compound Cc1cc(/C=C/C#N)cc(C)c1Nc1nc(Nc2ccc(C#N)cc2)ncc1C(=O)NCc1ccc(F)cc1 , give its reported EC50.
Output: 12.6

Task: Kindly indicate its recorded EC50. Item: CONC(=O)c1cnc(Nc2ccc(C#N)cc2)nc1Oc1c(C)cc(/C=C/C#N)cc1C
Output: 2.51

* * *

Tested on: HIV strain IIIB (wild type)
Method: Cellular anti-HIV assay in MT4 LTR-EGFP cells, strain IIIB (wild type); selectivity index versus cytotoxicity in mock-infected MT4 CMV-EGFP cells
Type: cell-based, HIV-1
Reported Conditions: Human immunodeficiency virus 1, 72 h; wild type HIV strain IIIB; MT4 LTR-EGFP cells; fluorescence, three days after infection; read-out: IIIB pEC50 (converted)
Procedure: The antiviral activity of the compound of the present invention has been evaluated in the presence of wild type HIV and HIV mutants bearing mutations at the reverse transcriptase gene. The activity of the compounds is evaluated using a cellular assay which was performed according to the following procedure. The human T-cell line MT4 is engineered with Green Fluorescent Protein (GFP) and an HIV-specific promoter, HIV-1 long terminal repeat (LTR). […]
Assay Readout: EC50 (nM)
Use nM as the unit, but write only the number.

>>> df
                                   compound  assay_readout  units  number
0  Cc1ccc(CNC(=O)c2cnc(Nc3ccc(C#N)cc3)nc2Nc2c(C)cc(/C=C/C#N)cc2C)o1           EC50     nM    15.8
1  Cc1cc(/C=C/C#N)cc(C)c1Nc1nc(Nc2ccc(C#N)cc2)ncc1C(=O)Nc1ccccn1           EC50     nM       2
2  Cc1cc(/C=C/C#N)cc(C)c1Nc1nc(Nc2ccc(C#N)cc2)ncc1C(=O)Nc1cccc(Cl)c1           EC50     nM    25.1
3  Cc1cc(/C=C/C#N)cc(C)c1Nc1nc(Nc2ccc(C#N)cc2)ncc1C(=O)NCC1CCCO1 (stereo not drawn)           EC50     nM    1.26
4  Cc1cccc(CNC(=O)c2cnc(Nc3ccc(C#N)cc3)nc2Nc2c(C)cc(/C=C/C#N)cc2C)c1           EC50     nM    15.8
5  Cc1cc(/C=C/C#N)cc(C)c1Nc1nc(Nc2ccc(C#N)cc2)ncc1C(=O)NCCc1ccc(S(N)(=O)=O)cc1           EC50     nM      20
6  Cc1cc(/C=C/C#N)cc(C)c1Nc1nc(Nc2ccc(C#N)cc2)ncc1C(=O)NCc1cccc(Br)c1           EC50     nM    15.8
7  COCCCNC(=O)c1cnc(Nc2ccc(C#N)cc2)nc1Nc1c(C)cc(/C=C/C#N)cc1C           EC50     nM    2.51
8  Cc1cc(/C=C/C#N)cc(C)c1Nc1nc(Nc2ccc(C#N)cc2)ncc1C(=O)NCCN1CCCC1           EC50     nM    3.98
9  Cc1cc(/C=C/C#N)cc(C)c1Nc1nc(Nc2ccc(C#N)cc2)ncc1C(=O)N(C)c1ccccc1           EC50     nM    5.01

Task: Return EC50 (reported value) for this compound: Cc1cc(/C=C/C#N)cc(C)c1Nc1nc(Nc2ccc(C#N)cc2)ncc1C(=O)NCCCO
Output: 15.8

Task: Please give the documented EC50 of Cc1cc(/C=C/C#N)cc(C)c1Nc1nc(Nc2ccc(C#N)cc2)ncc1C(=O)NCc1cccs1
Output: 5.01

Task: Provide only the value of recorded EC50 for Cc1cc(/C=C/C#N)cc(C)c1Nc1nc(Nc2ccc(C#N)cc2)ncc1C(=O)NCc1ccc(F)cc1
Output: 12.6

Task: Supply reported EC50 belonging to this compound: COCCNC(=O)c1cnc(Nc2ccc(C#N)cc2)nc1Nc1c(C)cc(/C=C/C#N)cc1C
Output: 2.51

Task: Give EC50 for the following compound: Cc1cc(/C=C/C#N)cc(C)c1Nc1nc(Nc2ccc(C#N)cc2)ncc1C(=O)NCCCN1CCCC1
Output: 0.794

* * *

Tested on: HIV strain K103N
Method: Cellular anti-HIV assay in MT4 LTR-EGFP cells, mutant K103N
Format: cell-based, HIV-1
Reported Conditions: Human immunodeficiency virus 1, read-out: K103N pEC50 (converted)
Attribute: EC50
Could you give me the number in nM? Just the number is fine.

>>> print(df.to_string())
                                   compound  assay_readout  units  number
0  Cc1cc(/C=C/C#N)cc(C)c1Nc1nc(Nc2ccc(C#N)cc2)ncc1C(=O)NCCCN(C)C [Compound 43]           EC50     nM      10
1  Cc1cc(/C=C/C#N)cc(C)c1Nc1nc(Nc2ccc(C#N)cc2)ncc1C(=O)NCCc1cccs1 [Compound 48]           EC50     nM      20
2  COCCCNC(=O)c1cnc(Nc2ccc(C#N)cc2)nc1Nc1c(C)cc(/C=C/C#N)cc1C [Compound 9]           EC50     nM    3.16
3  Cc1cc(/C=C/C#N)cc(C)c1Nc1nc(Nc2ccc(C#N)cc2)ncc1C(=O)NCc1cccc(Br)c1 [Compound 29]           EC50     nM      20
4  Cc1cc(/C=C/C#N)cc(C)c1Nc1nc(Nc2ccc(C#N)cc2)ncc1C(=O)NCc1ccncc1 [Compound 15]           EC50     nM    3.16

Task: Quickly give me recorded EC50 for Cc1cc(/C=C/C#N)cc(C)c1Oc1nc(Nc2ccc(C#N)cc2)ncc1C(=O)NCc1ccncc1 [Compound 58]
Output: 6.31

Task: Answer with the recorded EC50 of Cc1cc(/C=C/C#N)cc(C)c1Nc1nc(Nc2ccc(C#N)cc2)ncc1C(=O)NCc1ccc(N(C)C)cc1 [Compound 30] only.
Output: 15.8

Task: Please indicate EC50 recorded for Cc1cc(/C=C/C#N)cc(C)c1Nc1nc(Nc2ccc(C#N)cc2)ncc1C(=O)Nc1cccc(Cl)c1 [Compound 16]
Output: 3.98

* * *

Test system: HIV strain IIIB (wild type)
Method: Cellular anti-HIV assay in MT4 LTR-EGFP cells, strain IIIB (wild type); selectivity index versus cytotoxicity in mock-infected MT4 CMV-EGFP cells
Type: cell-based, HIV-1
Reported Conditions: Human immunodeficiency virus 1, 72 h; wild type HIV strain IIIB; MT4 LTR-EGFP cells; fluorescence, three days after infection; read-out: IIIB pEC50 (converted)
EC50 reference
# unit: nM | format: bare number

Solved entries:
>>> df
                           structure_smiles  assay_readout  number
0  Cc1cc(/C=C/C#N)cc(C)c1Nc1nc(Nc2ccc(C#N)cc2)ncc1C(=O)N1CCCCC1           EC50    3.16
1  Cc1cc(/C=C/C#N)cc(C)c1Nc1nc(Nc2ccc(C#N)cc2)ncc1C(=O)NCCc1ccccn1           EC50       2
2  CCN(CCO)C(=O)c1cnc(Nc2ccc(C#N)cc2)nc1Nc1c(C)cc(/C=C/C#N)cc1C           EC50       1

Consider now this further compound.
Task: Return the recorded EC50 value; entry: Cc1cc(/C=C/C#N)cc(C)c1Nc1nc(Nc2ccc(C#N)cc2)ncc1C(=O)NCc1ccc(N(C)C)cc1
Output: 12.6

* * *

Assay Readout: melting point

>>> print(df.to_string())
                                   compound  assay_readout    result
0  COc1ccccc1NC(=O)c1cnc(Nc2ccc(C#N)cc2)nc1Nc1c(C)cc(/C=C/C#N)cc1C  melting point  > 250 °C
1  COCCNC(=O)c1cnc(Nc2ccc(C#N)cc2)nc1Nc1c(C)cc(/C=C/C#N)cc1C [Compound 54]  melting point  > 250 °C
2  CCN(CCO)C(=O)c1cnc(Nc2ccc(C#N)cc2)nc1Nc1c(C)cc(/C=C/C#N)cc1C [Compound 55]  melting point  > 222 °C
3  Cc1cc(/C=C/C#N)cc(C)c1Nc1nc(Nc2ccc(C#N)cc2)ncc1C(=O)NCCO [Compound 53]  melting point  > 250 °C

Please find the next compound below.
Task: In one line, give reported melting point of the entry Cc1cc(/C=C/C#N)cc(C)c1Nc1nc(Nc2ccc(C#N)cc2)ncc1C(=O)N1CCOCC1 .
Output: > 250 °C
